Source listed as patent US20100222559.

- Test system: rabbit anti-mouse IgG antibody (Oryctolagus cuniculus)
- TEST_METHOD_NOTES: filter
- CONDITION: 20 nM RNA, 100 nM protein; 5 mM MgCl2, RT
Would you kindly list binding signal for each of these sequences?
One number for each entry, in % bound.

Examples with answers:
GGGAGAAUUCCGACCAGAAGUUUUUAAACCGCGCCUUGGAAGCGUACGUUGGCCUUUCCUCUCUCCUCCUUCUUCU [SEQ ID NO: 2 RNA aptamer]: 24.6
GGGAGAAUUCCGACCAGAAGCAAAUUGCCGGGCCUUGGAAGCCAAGUCGCUUUCCUCUCUCCUCCUUCUUCU [SEQ ID NO: 3 RNA aptamer]: 20.9
GGGAGAAUUCCGACCAGAAGCGCAAGCCGGCCCUUGGAAGGCUAGUCGGUCUUUCCUCUCUCCUCCUUCUUCU [SEQ ID NO: 4 RNA aptamer]: 23.4

Moving on to the next sequence.
// sample GGGAGAAUUCCGACCAGAAGUUCGAUACGCCGUGGGGUGACGUUGGCUACCUUUCCUCUCUCCUCCUUCUUCU [SEQ ID NO: 5 RNA aptamer] , its binding signal was 58.1
